# reported EC50; entries follow
Molecular target: ASK1 (kinase active, 631-1381 of rat ASK1 cDNA) in 293/AP1-Luc cells (Rattus norvegicus)
Sequence (A0A8I6AEL0 1-1381): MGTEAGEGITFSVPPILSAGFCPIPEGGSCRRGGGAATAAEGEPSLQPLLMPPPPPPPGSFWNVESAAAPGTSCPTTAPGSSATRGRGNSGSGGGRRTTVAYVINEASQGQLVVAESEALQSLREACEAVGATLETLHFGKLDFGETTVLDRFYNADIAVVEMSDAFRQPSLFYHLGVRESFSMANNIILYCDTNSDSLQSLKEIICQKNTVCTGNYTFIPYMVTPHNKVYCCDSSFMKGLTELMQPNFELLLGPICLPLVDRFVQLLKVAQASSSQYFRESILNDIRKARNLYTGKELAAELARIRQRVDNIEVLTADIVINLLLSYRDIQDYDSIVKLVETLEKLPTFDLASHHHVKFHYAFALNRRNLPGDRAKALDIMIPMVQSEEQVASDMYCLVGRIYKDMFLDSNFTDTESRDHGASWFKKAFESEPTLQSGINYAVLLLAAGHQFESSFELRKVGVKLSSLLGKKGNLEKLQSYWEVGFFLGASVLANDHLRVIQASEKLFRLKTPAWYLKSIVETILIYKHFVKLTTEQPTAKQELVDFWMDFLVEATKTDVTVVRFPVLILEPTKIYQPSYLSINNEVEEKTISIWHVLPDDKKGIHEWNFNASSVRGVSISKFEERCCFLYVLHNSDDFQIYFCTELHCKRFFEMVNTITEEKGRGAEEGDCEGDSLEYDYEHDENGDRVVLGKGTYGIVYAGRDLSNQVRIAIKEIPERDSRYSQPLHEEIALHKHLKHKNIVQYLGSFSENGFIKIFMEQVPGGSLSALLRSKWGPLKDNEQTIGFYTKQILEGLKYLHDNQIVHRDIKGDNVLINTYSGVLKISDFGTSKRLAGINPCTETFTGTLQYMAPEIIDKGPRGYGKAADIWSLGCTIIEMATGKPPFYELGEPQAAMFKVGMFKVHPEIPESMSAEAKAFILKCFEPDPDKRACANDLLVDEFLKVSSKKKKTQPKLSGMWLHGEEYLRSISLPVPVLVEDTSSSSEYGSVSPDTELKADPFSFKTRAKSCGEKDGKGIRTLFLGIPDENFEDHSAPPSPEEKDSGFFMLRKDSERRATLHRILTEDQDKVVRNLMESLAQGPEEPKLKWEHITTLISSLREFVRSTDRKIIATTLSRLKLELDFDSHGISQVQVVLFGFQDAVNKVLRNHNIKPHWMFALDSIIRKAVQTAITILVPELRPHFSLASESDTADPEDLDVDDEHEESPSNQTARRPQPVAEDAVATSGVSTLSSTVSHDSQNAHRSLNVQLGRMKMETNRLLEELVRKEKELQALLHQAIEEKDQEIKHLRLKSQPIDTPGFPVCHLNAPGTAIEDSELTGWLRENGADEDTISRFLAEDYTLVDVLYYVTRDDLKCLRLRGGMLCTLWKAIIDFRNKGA
Test: ASK1 293 cell-based assay (Cellular EC50), AP-1:luciferase reporter
Details: 293/AP1-Luc cells infected with adenovirus expressing ASK1, 24 hours
Provide the measurement as a number trailed by its unit.

C[C@H](n1cnnc1-c1nc(NC(=O)c2cc(-n3cnc(C4CC4)c3)c(N3CCOCC3)cn2)cs1)C(F)(F)F : 6.74 nM
CC1(O)CN(c2cnc(C(=O)Nc3csc(-c4nncn4C4CC4)n3)cc2-n2cnc(C3CC3)c2)C1 : 11.2 nM
O=C(Nc1csc(-c2nncn2C2CC2)n1)c1cc(-n2cnc(C3CC3)c2)c(N2CCOCC2)cn1 : 13.2 nM

What value of measured EC50 is listed for C[C@H](n1cnnc1-c1nc(NC(=O)c2cc(-n3cnc(C4CC4)c3)c(N3CC(C)(O)C3)cn2)cs1)C(F)(F)F ? 5.21 nM

What value of measured EC50 is listed for C[C@H](n1cnnc1-c1nc(NC(=O)c2cc(-n3cnc(C4CC4)c3)c(N(C)C)cn2)cs1)C(F)(F)F ? 7.12 nM
